In this section, each of the compounds is paired with its reported IC50.
biological target: BRD4 bromo domain 1 [BRD4(1)] (Homo sapiens, UniProt O60885); construct: N-terminally His6-tagged BRD4(1) (amino acids 67-152); assay: BRD4(1)/acetylated peptide H4 TR-FRET binding assay; details: His6-BRD4(1) (aa 67-152) vs acetylated histone H4 peptide
Number only, in µM; omit the unit.

{"cpd-smiles": "Cc1ccc(S(C)(=O)=O)cc1Nc1ccc2c(n1)N(C1CCOCC1)[C@H](C)C(=O)N2C", "parameter": "IC50", "measure-unit": "µM", "observed-result": 0.083}

Fill blank: measured IC50 of the compound COc1cc(Nc2ccc3c(n2)N(C2CCOCC2)[C@H](C)C(=O)N3C)cc(S(C)(=O)=O)c1 is ____.
0.063

For C[C@@H]1C(=O)N(C)c2ccc(Nc3cccc(S(C)(=O)=O)c3)nc2N1C1CCOCC1 then?
0.075
